Origin of measurements: ChEMBL document CHEMBL3988442

Measured on: Protein translocase subunit SecA (Escherichia coli (strain K12)) (UniProt P10408)
Sequence (P10408 whole entry): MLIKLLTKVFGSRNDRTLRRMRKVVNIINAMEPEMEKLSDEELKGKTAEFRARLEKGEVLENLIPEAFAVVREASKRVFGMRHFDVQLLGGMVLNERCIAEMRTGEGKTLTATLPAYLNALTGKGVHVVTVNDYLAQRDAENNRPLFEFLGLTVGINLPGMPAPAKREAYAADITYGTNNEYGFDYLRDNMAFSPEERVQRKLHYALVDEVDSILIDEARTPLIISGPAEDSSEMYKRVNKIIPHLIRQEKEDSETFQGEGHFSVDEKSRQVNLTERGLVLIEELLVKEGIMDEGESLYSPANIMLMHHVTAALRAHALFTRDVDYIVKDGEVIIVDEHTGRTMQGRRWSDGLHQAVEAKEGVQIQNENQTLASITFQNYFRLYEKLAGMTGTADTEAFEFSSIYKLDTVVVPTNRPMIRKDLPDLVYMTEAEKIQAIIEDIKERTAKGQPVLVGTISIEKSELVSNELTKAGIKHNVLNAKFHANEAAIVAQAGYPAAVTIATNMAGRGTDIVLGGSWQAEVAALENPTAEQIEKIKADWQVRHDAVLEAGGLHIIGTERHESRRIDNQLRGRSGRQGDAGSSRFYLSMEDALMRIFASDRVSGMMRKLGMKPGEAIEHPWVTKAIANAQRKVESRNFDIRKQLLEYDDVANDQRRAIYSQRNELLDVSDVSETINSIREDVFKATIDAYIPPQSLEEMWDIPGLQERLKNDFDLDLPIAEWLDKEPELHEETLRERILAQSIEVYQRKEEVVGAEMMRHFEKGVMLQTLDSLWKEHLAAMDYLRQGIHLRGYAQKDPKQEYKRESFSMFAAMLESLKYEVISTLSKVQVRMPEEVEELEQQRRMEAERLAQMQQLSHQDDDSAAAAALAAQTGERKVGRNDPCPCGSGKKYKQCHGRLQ
Assay name: Assay to Identify E. coli SecA ATPase Inhibitors
Format: functional
Set-up: scale not given: direction of the effect not stated beside the values
Conditions used: 30 µM
Results with a measured potency or affinity are listed apart.
Attribute measured: Percent Effect (%)

- Molecule: "Cn1cc(C2CCCN2Cc2csc(-c3ccsc3)n2)cn1 (configuration not stated)"
  Measured on: "Protein translocase subunit SecA (Escherichia coli (strain K12)) (UniProt P10408)"
  Reported measurement: -1.56
- Molecule: "Cc1cc(C)n(-c2cncc(NCCNC(=O)CC3CCCC3)n2)n1"
  Measured on: "Protein translocase subunit SecA (Escherichia coli (strain K12)) (UniProt P10408)"
  Reported measurement: -5.92
- Molecule: "c1cncc(CN2CCc3ncnc(C4CCOC4)c3CC2)c1 (configuration not stated)"
  Measured on: "Protein translocase subunit SecA (Escherichia coli (strain K12)) (UniProt P10408)"
  Reported measurement: 1.94
- Molecule: "O=C(Nc1ccc(N2CCCC2)nc1)N1CCc2ccccc2C1"
  Measured on: "Protein translocase subunit SecA (Escherichia coli (strain K12)) (UniProt P10408)"
  Reported measurement: -3.4
- Molecule: "CC(O)CN1CCC(CNCc2cccc(C(N)=O)c2)CC1 (configuration not stated)"
  Measured on: "Protein translocase subunit SecA (Escherichia coli (strain K12)) (UniProt P10408)"
  Reported measurement: -1.81
- Molecule: "CC(=O)N1CCCC1c1nccc(C)n1 (configuration not stated)"
  Measured on: "Protein translocase subunit SecA (Escherichia coli (strain K12)) (UniProt P10408)"
  Reported measurement: -4.82
- Molecule: "NC(=O)c1cc(NC(=O)NCCc2cc(F)cc(F)c2)ccc1F"
  Measured on: "Protein translocase subunit SecA (Escherichia coli (strain K12)) (UniProt P10408)"
  Reported measurement: -0.0438
- Molecule: "Cc1noc(CN2CCN(Cc3cccs3)CC2)n1"
  Measured on: "Protein translocase subunit SecA (Escherichia coli (strain K12)) (UniProt P10408)"
  Reported measurement: -0.284
- Molecule: "CNc1cc2c(nn1)CCN(C(=O)c1ccoc1)C2"
  Measured on: "Protein translocase subunit SecA (Escherichia coli (strain K12)) (UniProt P10408)"
  Reported measurement: -0.747
- Molecule: "O=C1CC2(CCCCN2C(=O)c2ccsc2)CN1CC1CC1 (configuration not stated)"
  Measured on: "Protein translocase subunit SecA (Escherichia coli (strain K12)) (UniProt P10408)"
  Reported measurement: -4.46
- Molecule: "c1cnnc(N2CCCC(NCc3ccc(-n4ccnc4)cc3)C2)c1 (configuration not stated)"
  Measured on: "Protein translocase subunit SecA (Escherichia coli (strain K12)) (UniProt P10408)"
  Reported measurement: -1.81
- Molecule: "CC(C)c1noc(CCC(=O)NCC2CCOC2)n1 (configuration not stated)"
  Measured on: "Protein translocase subunit SecA (Escherichia coli (strain K12)) (UniProt P10408)"
  Reported measurement: -1.25
